System: aqueous solubility in 1x PBS
Test: compound solubility in 1x PBS – biophysical, set 2, ADME assay (AID 624321)
Conditions: at 100 µM
Activity calls are given as the source filed them. The rule behind the calls is not given here.
Hi! Could you answer with just one of these? true (1) (active), false (0) (inactive)

Status in this test for CCCOc1ccc(-c2nc(OC)c3ccccc3n2)cc1 ?
false (0)

Given O=C1C2CC=CCC2C(=O)N1c1n[nH]c(-c2ccccc2)n1 (configuration not stated) , state the outcome it received in this test.
true (1)

Please let me know the test result on file for N#Cc1ccccc1CSc1nc2ncc(Br)cc2[nH]1 .
false (0)

Hi team, can someone confirm the assay call for c1ccc2c(Nc3nnc(-c4ccncc4)s3)cccc2c1 ?
false (0)

Identify the outcome logged in this assay for the compound shown: CN(C)c1nc(N)nc(CSc2nnnn2-c2cccc3ccccc23)n1
false (0)

What is the recorded call for this compound in the test? Cc1ccnc(NC(=O)CCCOc2cc(=O)n(C)c3ccccc23)c1
false (0)

What did this assay record as the result for CCCc1cc(C(=O)N(C2CCCCC2)C2CCCCC2)no1 ?
false (0)

Which outcome was assigned to Cc1ccc(-n2c(N)c(C#N)c(-c3ccccc3)c(C#N)c2=O)cc1 in this test?
false (0)

What did the test return for CCOC(=O)C(C)Oc1cccc2c(=O)n(CC(=O)Nc3ccc4c(c3)OCCO4)ccc12 (configuration not stated) ?
false (0)

What did the test return for O=c1c2ccccc2[se]n1-c1ccccc1 ?
false (0)

Hi team, can someone confirm the assay call for Cn1nnnc1Sc1ncnc2scc(-c3ccccc3)c12 ?
false (0)

Which outcome did this test record for the compound Cc1ccc(S(=O)(=O)C(c2ccccc2)c2c(C)noc2C)cc1 (configuration not stated) ?
true (1)

Hi team, can someone confirm the assay call for CC[C@H]1CN2CCc3cc(OC)c(OC)cc3[C@@H]2C[C@@H]1C[C@H]1NCCc2cc(OC)c(OC)cc21 ?
true (1)

I would be grateful if you could indicate the recorded call for CS(=O)(=O)c1ccc(C(=O)OCC(=O)NC23CC4CC(CC(C4)C2)C3)cc1[N+](=O)[O-] .
false (0)

Lab log entry: c1ccc(-c2nnc(N3CCOCC3)nc2-c2ccccc2)cc1 — outcome as called in the assay?
false (0)

Tell me the recorded outcome of this test for CC1CCCN(C(C(=O)Nc2ccc3c(c2)OCCO3)c2ccccc2)C1 (configuration not stated) .
false (0)

Please state the recorded outcome for this compound: C=CCn1c(SCC(=O)c2ccc(O)c(O)c2)nnc1-c1ccccc1OC
true (1)

Outcome? COc1ccc(OC)c(S(=O)(=O)Nc2cnc3ccccc3c2)c1
true (1)

Per the records of this test, what outcome belongs to Cc1cc(C)nc(-n2nc(C)c(Sc3ccc(F)cc3)c2N)n1 ?
false (0)

Just curious, what result did CC(=O)c1ccc(N2CCN(S(=O)(=O)c3ccc4c(c3)CC(=O)N4)CC2)cc1 get here?
false (0)

In this assay, the call recorded for CCc1nnc(NC(=O)c2ccc(NS(=O)(=O)c3ccccc3)cc2)s1 was what?
false (0)

Check the results log: what was the call for Cc1ccc(C(=O)n2c3ccccc3c3ccccc32)cc1 ?
false (0)
